Biological target: Anoctamin-1 (Mus musculus) (UniProt Q8BHY3)
Sequence (Q8BHY3 whole entry, looked up): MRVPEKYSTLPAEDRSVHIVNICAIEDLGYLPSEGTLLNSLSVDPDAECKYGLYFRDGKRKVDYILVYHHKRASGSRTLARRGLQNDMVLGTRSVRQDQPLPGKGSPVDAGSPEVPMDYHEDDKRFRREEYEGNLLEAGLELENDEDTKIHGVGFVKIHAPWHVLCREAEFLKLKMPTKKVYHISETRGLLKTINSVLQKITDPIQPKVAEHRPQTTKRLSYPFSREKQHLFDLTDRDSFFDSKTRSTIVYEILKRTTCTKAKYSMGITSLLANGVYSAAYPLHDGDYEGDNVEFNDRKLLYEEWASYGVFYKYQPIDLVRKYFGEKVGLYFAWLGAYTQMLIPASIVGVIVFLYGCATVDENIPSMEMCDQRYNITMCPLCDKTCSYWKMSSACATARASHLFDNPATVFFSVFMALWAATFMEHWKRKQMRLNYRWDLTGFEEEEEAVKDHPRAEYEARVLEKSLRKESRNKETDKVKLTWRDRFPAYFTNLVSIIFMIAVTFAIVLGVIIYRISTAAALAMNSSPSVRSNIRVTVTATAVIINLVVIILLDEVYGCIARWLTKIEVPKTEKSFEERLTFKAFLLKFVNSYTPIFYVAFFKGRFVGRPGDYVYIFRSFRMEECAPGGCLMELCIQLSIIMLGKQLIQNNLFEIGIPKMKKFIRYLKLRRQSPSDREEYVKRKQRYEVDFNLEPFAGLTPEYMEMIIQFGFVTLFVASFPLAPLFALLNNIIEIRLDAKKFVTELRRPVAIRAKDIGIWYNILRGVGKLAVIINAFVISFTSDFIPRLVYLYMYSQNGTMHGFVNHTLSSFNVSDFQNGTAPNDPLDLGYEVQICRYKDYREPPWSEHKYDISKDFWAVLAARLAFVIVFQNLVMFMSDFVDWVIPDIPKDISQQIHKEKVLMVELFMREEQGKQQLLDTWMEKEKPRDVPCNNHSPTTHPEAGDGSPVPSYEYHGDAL
Test: mouse ANO1 channel activation – cell-based, HTS, primary screen (AID 623877)
Conditions: HEK293 TMEM16A/YFP-H148Q/I152L, iodide quench fluorescence, at 10 µM
Screen size: about 340,000 compounds; about 1,000 (0.29%) were called active.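 How the source made its calls: active means fluorescence-ratio B-score plate-corrected deviation score at least 3 library SD below zero, with starting fluorescence score within 5 deviations; inactive means the rest.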 Shown is part of a subset that was picked to be rich in actives.
Labels: active, inactive

{"compound": "CC(=O)OCC(COC(C)=O)OC(C)=O", "qualitativeLabel": "inactive"}
{"compound": "COCCNC(=O)CSc1nc2c(n1-c1ccccc1)CCCC2", "qualitativeLabel": "inactive"}
{"compound": "CCC(C)NC(=O)CCCc1ccccc1 (stereo unspecified)", "qualitativeLabel": "inactive"}
{"compound": "COc1ccc(Cn2c(O)c(/C=C3/C=CC=N3)c(=O)[nH]c2=O)cc1", "qualitativeLabel": "active"}
{"compound": "O=C(COc1ccc(NC(=O)c2ccccc2[N+](=O)[O-])cc1)c1ccc(F)cc1", "qualitativeLabel": "inactive"}
{"compound": "CN(C)S(=O)(=O)c1ccc(C(=O)NCCN=C2NS(=O)(=O)c3ccccc32)cc1", "qualitativeLabel": "inactive"}
{"compound": "Cc1ccc(-c2nn(-c3ccccc3)cc2C(=O)NC2CCC(O)CC2)cc1 (stereo unspecified)", "qualitativeLabel": "inactive"}
{"compound": "FC(F)(F)c1cccc(NC(=S)Nc2cccc(Cl)c2)c1", "qualitativeLabel": "active"}
{"compound": "Cn1c(=O)c([N+](=O)[O-])c(Oc2ccccc2)c2ccccc21", "qualitativeLabel": "active"}
{"compound": "COc1cc(C(=O)Nc2oc(-c3ccccc3)c(-c3ccccc3)c2C#N)cc(OC)c1OC", "qualitativeLabel": "inactive"}
{"compound": "O=C(CN1CCN(S(=O)(=O)c2cccc(Cl)c2)CC1)N1CCCCC1", "qualitativeLabel": "inactive"}
{"compound": "COc1ccc(CCCc2nnc(SCc3nc4ccccc4c(=O)[nH]3)n2C)cc1", "qualitativeLabel": "inactive"}
{"compound": "O=C(CN1CCN(c2ccccc2O)CC1)NC(=O)NCc1ccccc1", "qualitativeLabel": "inactive"}
{"compound": "Cc1cc(S(=O)(=O)NCC(C)C)ccc1OCC(=O)NC1CC1", "qualitativeLabel": "inactive"}
{"compound": "NC(=O)C1CCN(C(=O)c2cn(-c3ccccc3)nc2-c2cccnc2)CC1", "qualitativeLabel": "inactive"}
{"compound": "Cc1cccc(Oc2c([N+](=O)[O-])c(=O)n(C)c3ccccc23)c1", "qualitativeLabel": "inactive"}
{"compound": "CCCCN1CCNC1=S", "qualitativeLabel": "inactive"}
{"compound": "C#CCOCCOCCOCCNc1nc(N2CCN(C(=O)C(Cc3ccc(O)cc3)n3cc(C(N)CC(C)C)nn3)CC2)nc(N2CCN(C(=O)C(Cc3ccc(O)cc3)n3cc(C(N)C(C)CC)nn3)CC2)n1 (stereo unspecified)", "qualitativeLabel": "inactive"}
{"compound": "CC(C)N(Cc1ccccc1)C(=S)Nc1ccc(OC(F)F)cc1", "qualitativeLabel": "inactive"}
{"compound": "Cc1noc(/C=C/c2ccco2)c1S(=O)(=O)N1CCC(C(=O)Nc2ccc(Cl)cn2)CC1", "qualitativeLabel": "inactive"}
{"compound": "O=C(NCCCc1ccccc1)c1cc(COc2c(F)cccc2F)on1", "qualitativeLabel": "inactive"}
